Listing of entries alongside the reported drug sensitivity score.
- Tested on: SW480
- method_description: drug sensitivity score (DSS, integrated dose-response area); higher = more sensitive (stronger viability reduction); extreme values may be limits of the assay
- cond: shRNA: SND1 shRNA1 (SND1 silenced)
measured_quantity: drug sensitivity score (DSS)

| chemical_smiles | value |
| --- | --- |
| CC(C)Nc1cc(-c2c[nH]c(C(=O)N[C@H](CO)c3cccc(Cl)c3)c2)c(Cl)cn1 | 10.2 |
| CN1CCN(C2CCN(C(=O)Nc3cc(Oc4ccc(NC(=O)C5(C(=O)Nc6ccc(F)cc6)CC5)c(F)c4)ccn3)CC2)CC1 | 0 |
| O=C(O)CCCc1ccc(N(CCCl)CCCl)cc1 | 0 |
| CO[C@H]1C[C@@H]2CC[C@@H](C)[C@@](O)(O2)C(=O)C(=O)N2CCCC[C@H]2C(=O)O[C@H]([C@H](C)C[C@@H]2CC[C@@H](OP(C)(C)=O)[C@H](OC)C2)CC(=O)[C@H](C)/C=C(\C)[C@@H](O)[C@@H](OC)C(=O)[C@H](C)C[C@H](C)/C=C/C=C/C=C/1C | 5.9 |
| CO[C@H]1/C=C\C=C(/C)C(=O)NC2=CC(=O)C(NCCN(C)C)=C(C[C@@H](C)C[C@H](OC)[C@H](O)[C@@H](C)/C=C(\C)[C@@H]1OC(N)=O)C2=O | 7 |
| COc1cc(OC2CCN(C)CC2)ccc1Nc1ncc2c(n1)n(C1CCCC1)c(=O)n2C | 10.9 |
| O=NN(CCCl)C(=O)NC1CCCCC1 | 0 |

###

- System: SW480
- method_description: drug sensitivity score (DSS, integrated dose-response area); higher = more sensitive (stronger viability reduction); extreme values may be limits of the assay
- cond: shRNA: SND1 shRNA1 (SND1 silenced)
Listing of entries alongside the reported drug sensitivity score.

| compound | readout_unit | drug sensitivity score |
| --- | --- | --- |
| CN(C)c1cc2c(cc1Sc1nc3c(N)nccc3n1CCNCC(C)(C)C)OCO2 [CUDC-305] | DSS | 13.3 |
| Nc1nc2[nH]cc(CCc3ccc(C(=O)N[C@@H](CCC(=O)O)C(=O)O)cc3)c2c(=O)[nH]1 [Pemetrexed] | DSS | 9.9 |
| O=C(/C=C\n1cnc(-c2cc(C(F)(F)F)cc(C(F)(F)F)c2)n1)NNc1cnccn1 [Selinexor] | DSS | 19.5 |
| CNC(=O)c1ccc2cc([C@@]3(O)CCn4cncc43)ccc2c1 [Orteronel] | DSS | 0 |
| Nc1nc(F)nc2c1ncn2[C@@H]1O[C@H](CO)[C@@H](O)[C@@H]1O [Fludarabine] | DSS | 1.8 |
| CC(C)(C#N)c1cc(Cn2cncn2)cc(C(C)(C)C#N)c1 [Anastrozole] | DSS | 0 |
| C[C@@H]1C=C2C(=O)O[C@@H]3CC[C@H](C1)[C@]23O [Galiellalactone] | DSS | 3.8 |
| CC(C)Oc1cc(Nc2nc(N[C@@H](C)c3ccc(F)cn3)ncc2Cl)n[nH]1 [AZ-23] | DSS | 3.1 |
| O=c1[nH]c(C2CCCN2)nc2c1oc1ccc(Cl)cc12 (stereo not given) | DSS | 1.5 |
| COc1cc2ncnc(Oc3cccc(NC(=O)Nc4cc(C(C)(C)C(F)(F)F)on4)c3)c2cc1OC | DSS | 4.5 |

###

- System: SW480
- method_description: drug sensitivity score (DSS, integrated dose-response area); higher = more sensitive (stronger viability reduction); extreme values may be limits of the assay
- cond: shRNA: SND1 shRNA1 (SND1 silenced)
Label Satisfied for high-side drug sensitivity score (at or above 8 DSS) and Not satisfied for low-side drug sensitivity score (below it).

| molecule | category_label |
| --- | --- |
| O=C(c1ccc(/C=C/c2n[nH]c3ccccc23)cc1)N1CCNCC1 [KW-2449] | Not satisfied |
| Cc1cc(Nc2cc(N3CCN(C)CC3)nc(/C=C/c3ccccc3)n2)n[nH]1 [ENMD-2076] | Satisfied |
| COc1c(C)cnc(Cn2cnc3c(Cl)nc(N)nc32)c1C [BIIB021] | Satisfied |
| COc1ccc(-c2cc3c(C)nc(N)nc3n([C@H]3CC[C@H](OCCO)CC3)c2=O)cn1 | Satisfied |

###

- Tested on: SW480
- method_description: drug sensitivity score (DSS, integrated dose-response area); higher = more sensitive (stronger viability reduction); extreme values may be limits of the assay
- cond: shRNA: SND1 shRNA1 (SND1 silenced)
Label Condition met for high-side drug sensitivity score (at or above 4 DSS) and Condition not met for low-side drug sensitivity score (below it).

| compound | category_label |
| --- | --- |
| CCN(CC)C(=S)SSC(=S)N(CC)CC [Disulfiram] | Condition met |
| CN[C@@H](C)C(=O)N[C@H]1CN(C(=O)CC(C)C)CC[C@H]2CC[C@@H](C(=O)NC(c3ccccc3)c3ccccc3)N2C1=O [AT-406] | Condition not met |
| COc1ccc(Cl)c(Nc2nc3ccccc3nc2NS(=O)(=O)c2cccc(NC(=O)C(C)(C)N)c2)c1 [Pilaralisib] | Condition not met |
| Cn1cc(CNCC2CCN(c3ncc(C(=O)NO)cn3)CC2)c2ccccc21 [Quisinostat] | Condition met |
| O=C(O)c1ccc(-c2c[nH]c3ncc(-c4ccccc4)cc23)cc1C1CCCC1 | Condition not met |
| Cc1nc(Nc2ncc(C(=O)Nc3c(C)cccc3Cl)s2)cc(N2CCN(CCO)CC2)n1 [Dasatinib] | Condition not met |
| Cc1nn(C)c(COc2ccc(N3CCN(S(=O)(=O)N(C)C)CC3)cc2)c1-c1cccc2c(CCCOc3cccc4ccccc34)c(C(=O)O)n(CCN3CCOCC3)c12 | Condition met |
| Clc1ccccc1C(c1ccccc1)(c1ccccc1)n1cccn1 [TRAM-34] | Condition not met |
| CC(C)(C)c1cnc(CSc2cnc(NC(=O)C3CCNCC3)s2)o1 [SNS-032] | Condition met |
| CC(C)[C@@H](CS(=O)(=O)C(C)C)N1C(=O)[C@@](C)(CC(=O)O)C[C@H](c2cccc(Cl)c2)[C@H]1c1ccc(Cl)cc1 [AMG-232] | Condition not met |
| CNC(=O)c1cccc(-c2ccc3c(N4CCOC[C@@H]4C)nc(N4CCOC[C@@H]4C)nc3n2)c1 [AZD2014] | Condition met |
| COc1cc(Nc2ncc3c(n2)-c2ccc(Cl)cc2C(c2c(F)cccc2OC)=NC3)ccc1C(=O)O [Alisertib] | Condition met |
| C/C(=C\c1csc(C)n1)[C@@H]1C[C@@H]2O[C@]2(C)CCC[C@H](C)[C@H](O)[C@@H](C)C(=O)C(C)(C)[C@@H](O)CC(=O)N1 [Ixabepilone] | Condition not met |
| NC(=O)Nc1cc(-c2cccc(F)c2)sc1C(=O)N[C@H]1CCCNC1 [AZD7762] | Condition met |
| CN(CC(=O)N(Cc1ccc(C2CCCCC2)cc1)c1ccc(C(=O)O)cc1)S(=O)(=O)c1c(F)c(F)c(F)c(F)c1F [SH-4-54] | Condition met |
| COc1cc(CCc2cc(NC(=O)c3ccc(N4CC(C)NC(C)C4)cc3)n[nH]2)cc(OC)c1 (stereo unspecified) [AZD4547] | Condition not met |
| COc1cc(Br)c(Nc2nc(-c3c(C)nc4ncccn34)cs2)c(Br)c1 [PTC-209] | Condition met |
| COc1cc([C@@H]2c3cc4c(cc3[C@@H](O[C@@H]3O[C@@H]5CO[C@@H](C)O[C@H]5[C@H](O)[C@H]3O)[C@H]3COC(=O)[C@H]23)OCO4)cc(OC)c1O [Etoposide] | Condition not met |
| O=C(/C=C/c1cccnc1)NCCCCC1CCN(C(=O)c2ccccc2)CC1 [Daporinad] | Condition met |
| COc1cccc2c1C(=O)c1c(O)c3c(c(O)c1C2=O)C[C@@](O)(C(=O)CO)C[C@@H]3O[C@H]1C[C@H](N)[C@H](O)[C@H](C)O1 [Doxorubicin] | Condition met |
| O=C(Nc1c[nH]nc1-c1nc2ccc(CN3CCOCC3)cc2[nH]1)NC1CC1 [AT9283] | Condition not met |

###

- System: SW480
- method_description: drug sensitivity score (DSS, integrated dose-response area); higher = more sensitive (stronger viability reduction); extreme values may be limits of the assay
- cond: shRNA: SND1 shRNA1 (SND1 silenced)
Label Yes for high-side drug sensitivity score (at or above 3 DSS) and No for low-side drug sensitivity score (below it).

| chemical_smiles | category_label |
| --- | --- |
| O=c1ncn2nc(Sc3ccc(F)cc3F)ccc2c1-c1c(Cl)cccc1Cl | No |
| CCOC(=O)CCNc1cc(N2CCc3ccccc3CC2)nc(-c2ccccn2)n1 | Yes |
| Cc1cc(Nc2ncc(Cl)c(Nc3ccccc3S(=O)(=O)C(C)C)n2)c(OC(C)C)cc1C1CCNCC1 | No |
| O=c1cc(N2CCOCC2)oc2c(-c3ccccc3)cccc12 | Yes |
| Nc1cc(F)ccc1NC(=O)/C=C/c1cnn(C/C=C/c2ccccc2)c1 | Yes |
| O=C(CCCCCCNC(=O)c1cnc(N(c2ccccc2)c2ccccc2)nc1)NO | Yes |
| CCn1c(-c2nonc2N)nc2c(C#CC(C)(C)O)ncc(OC[C@H]3CCCNC3)c21 | No |
| c1ccc([C@H]2CN3CCSC3=N2)cc1 | No |
| Cc1cc(C(=O)NOCCO)c(Nc2ccc(I)cc2F)n(C)c1=O | Yes |
| CO[C@@H](C(=O)N1Cc2[nH]nc(NC(=O)c3ccc(N4CCN(C)CC4)cc3)c2C1)c1ccccc1 | Yes |
| Cn1cc(C2=C(c3cn(C4CCN(Cc5ccccn5)CC4)c4ccccc34)C(=O)NC2=O)c2ccccc21 | Yes |
| O=C(c1ccc(C(=O)N2CCC(N3CCCC3)CC2)c(Nc2ccccc2)c1)N1CCC(N2CCCC2)CC1 | No |
| Cc1cc(C)c(CNC(=O)c2cc(-c3ccc(CN4CCOCC4)cc3)cc3c2cnn3C2CCCC2)c(=O)[nH]1 | No |

// provenance: the supplement of paper PMC9265050
